These data points were gathered from PubChem BioAssay (NCI).

Test system: HCT-116 colon
ASSAY_NOTES: NCI tumour cell line growth inhibition, 48 h
ASSAY_METRIC: TGI

{"COMPOUND": "CC(NC(=O)/C(C#N)=C/c1ccc2[nH]ccc2c1)c1ccccc1 (stereo not given)", "ASSAY_METRIC": "TGI", "RESULT": "28.1 µM"}
{"COMPOUND": "CO[C@@](c1ccccc1)(c1nc(C#N)c(N)o1)C(F)(F)F", "ASSAY_METRIC": "TGI", "RESULT": "> 100 µM"}
{"COMPOUND": "CC(=O)NCCCCCCNC(C)=O", "ASSAY_METRIC": "TGI", "RESULT": "> 10000 µM"}
{"COMPOUND": "O=C(NCCCNC(=O)OCc1ccc2c(Br)cc(Br)c(O)c2n1)OCc1ccc2c(Br)cc(Br)c(O)c2n1", "ASSAY_METRIC": "TGI", "RESULT": "> 100 µM"}
{"COMPOUND": "Nc1nc(Cl)cc(NCC2(CO)CCC2)n1", "ASSAY_METRIC": "TGI", "RESULT": "> 100 µM"}
{"COMPOUND": "CN(C)CCOc1nc2c3cccnc3cc(-c3cccc(Cl)c3)c2c2ncccc12", "ASSAY_METRIC": "TGI", "RESULT": "2.32 µM"}
{"COMPOUND": "O=C(O)c1ccc(S(=O)(=O)N=Nc2c(O)[nH]c3ccccc23)cc1", "ASSAY_METRIC": "TGI", "RESULT": "> 100 µM"}
{"COMPOUND": "CCc1ccccc1-n1c2nc(=O)n(C)c(=O)c-2nc2ccccc21", "ASSAY_METRIC": "TGI", "RESULT": "25.8 µM"}
{"COMPOUND": "COC(=O)[C@H]1C=C[C@@H](C)n2c(=O)c3ccccc3c(=O)n21", "ASSAY_METRIC": "TGI", "RESULT": "> 100 µM"}
{"COMPOUND": "CC(=N/NC(=S)Nc1c(C)n(C)n(-c2ccccc2)c1=O)/C(C)=N\\NC(=S)Nc1c(C)n(C)n(-c2ccccc2)c1=O", "ASSAY_METRIC": "TGI", "RESULT": "> 100 µM"}
